Tested on: Liver
Assay: Intrinsic clearance in human liver microsomes assessed per mg protein at 1 uM preincubated for 10 mins followed by NADPH addition measured after 45 mins by LC-MS/MS analysis
Type: ADME, microsome
Details: microsomes, 0.75 h, 1 µM
Rule: microsomal CLint below 60 µL/min/mg gives 1 (yes), anything at or above gives 0 (no).

Illustrative cases are given below, each with its answer.
compound | experimental_system | classification
CCOC(c1cc(Cl)c2c(c1Cl)C(=O)N(Cc1c(C)cc(C)[nH]c1=O)CC2)C1CS(=O)(=O)C1 (single isomer, unassigned; (+)) | Liver | 0 (no)
COc1cc(C)[nH]c(=O)c1CN1CCc2c(Cl)cc(C(OC)C3CCN(C(=O)CO)CC3)c(Cl)c2C1=O (single isomer, unassigned; (+)) | Liver | 1 (yes)
COC(c1cc(Cl)c2c(c1Cl)C(=O)N(Cc1c(C)cc(C)[nH]c1=O)CC2)C1CS(=O)(=O)C1 (stereo in doubt; (+)-19a) | Liver | 1 (yes)
COC(c1cc(Cl)c2c(c1Cl)C(=O)N(Cc1c(C)cc(C)[nH]c1=O)CC2)C1CCOC1 (single isomer, unassigned; (+)-10a) | Liver | 0 (no)

# next compound below
# check: microsomal CLint < 60 µL/min/mg for CCC(O)c1cc(Cl)c2c(c1Cl)C(=O)N(Cc1c(C)cc(C)[nH]c1=O)CC2 (single isomer, unassigned; (+))
1 (yes)
